# Test system: SK-OV-3
# ASSAY OVERVIEW: Growth inhibition of human SKOV3 cells after 48 hrs by sulforhodamine B assay
# Format: functional
# MEASUREMENT CONDITIONS: SK-OV-3, 48 h
Criterion: GI50 strictly less than 5 µM. Met: criterion met. Not met: criterion not met.

compound_structure_string=CC(C)=CCC/C(C)=C/CC/C(C)=C/CC[C@]1(C)CCc2c3c(cc(C)c2O1)OCN(CCCCO)C3 assigned_category="criterion not met"
compound_structure_string=CC(C)=CCC/C(C)=C/CC/C(C)=C/CC[C@]1(C)CCc2c3c(c(C)c(C)c2O1)OCN(CCCCCO)C3 assigned_category="criterion not met"
compound_structure_string=CC(C)=CCC/C(C)=C/CC/C(C)=C/CC[C@]1(C)CCc2c3c(cc(C)c2O1)OCN(C1CCN(Cc2ccccc2)CC1)C3 assigned_category="criterion met"
compound_structure_string=CC(C)=CCC/C(C)=C/CC/C(C)=C/CC[C@]1(C)CCc2c3c(cc(C)c2O1)OCN(CCCCCCO)C3 assigned_category="criterion met"
compound_structure_string=CC(C)=CCC/C(C)=C/CC/C(C)=C/CC[C@]1(C)CCc2c3c(cc(C)c2O1)OCN(CCCO)C3 assigned_category="criterion met"
compound_structure_string=CC(C)=CCC/C(C)=C/CC/C(C)=C/CC[C@]1(C)CCc2c3c(cc(C)c2O1)OCN(CCCCCCCCO)C3 assigned_category="criterion met"
compound_structure_string=CC(C)=CCC/C(C)=C/CC/C(C)=C/CC[C@]1(C)CCc2c3c(cc(C)c2O1)OCN(CCc1ccc(O)cc1)C3 assigned_category="criterion not met"
compound_structure_string=CC(C)=CCC/C(C)=C/CC/C(C)=C/CC[C@]1(C)CCc2c3c(c(C)c(C)c2O1)OCN(CCCCO)C3 assigned_category="criterion not met"
compound_structure_string=CC(C)=CCC/C(C)=C/CC/C(C)=C/CC[C@]1(C)CCc2c3c(c(C)c(C)c2O1)OCN(CCCCCCO)C3 assigned_category="criterion met"
compound_structure_string=CC(C)=CCC/C(C)=C/CC/C(C)=C/CC[C@]1(C)CCc2c3c(c(C)c(C)c2O1)OCN(CCCCCCCCO)C3 assigned_category="criterion met"
compound_structure_string=CC(C)=CCC/C(C)=C/CC/C(C)=C/CC[C@]1(C)CCc2c3c(cc(C)c2O1)OCN(CCCCCO)C3 assigned_category="criterion not met"
compound_structure_string=COc1ccc(CCN2COc3cc(C)c4c(c3C2)CC[C@@](C)(CC/C=C(\C)CC/C=C(\C)CCC=C(C)C)O4)cc1OC assigned_category="criterion met"

* * *

# System: OVCAR-3
# ASSAY OVERVIEW: Growth inhibition of human OVCAR3 cells after 48 hrs by sulforhodamine B assay
# Type: functional
# MEASUREMENT CONDITIONS: OVCAR-3, 48 h
The threshold is 4 µM. Values of GI50 beneath it are tagged YES; values meeting or exceeding it are tagged NO.

compound_structure_string=CC(C)=CCC/C(C)=C/CC/C(C)=C/CC[C@]1(C)CCc2c3c(c(C)c(C)c2O1)OCN(CCCCO)C3 assigned_category=YES
compound_structure_string=CC(C)=CCC/C(C)=C/CC/C(C)=C/CC[C@]1(C)CCc2c3c(cc(C)c2O1)OCN(CCCCCO)C3 assigned_category=NO
compound_structure_string=CC(C)=CCC/C(C)=C/CC/C(C)=C/CC[C@]1(C)CCc2c3c(c(C)c(C)c2O1)OCN(CCCCCCO)C3 assigned_category=YES
compound_structure_string=CC(C)=CCC/C(C)=C/CC/C(C)=C/CC[C@]1(C)CCc2c3c(cc(C)c2O1)OCN(CCc1ccc(O)cc1)C3 assigned_category=YES
compound_structure_string=CC(C)=CCC/C(C)=C/CC/C(C)=C/CC[C@]1(C)CCc2c3c(cc(C)c2O1)OCN(CCCCCCCCO)C3 assigned_category=YES
compound_structure_string=CC(C)=CCC/C(C)=C/CC/C(C)=C/CC[C@]1(C)CCc2c3c(cc(C)c2O1)OCN(CCCCO)C3 assigned_category=NO
compound_structure_string=CC(C)=CCC/C(C)=C/CC/C(C)=C/CC[C@]1(C)CCc2c3c(cc(C)c2O1)OCN(C1CCN(Cc2ccccc2)CC1)C3 assigned_category=YES
compound_structure_string=CC(C)=CCC/C(C)=C/CC/C(C)=C/CC[C@]1(C)CCc2c3c(c(C)c(C)c2O1)OCN(CCCCCCCCO)C3 assigned_category=YES
